assay-target: Glucose transporter (Leishmania mexicana)
assay-summary: ST_JUDE_LEISH: Cytotoxicity at 2uM final concentration against transgenic Leishmania Mexicana promastigotes LmGT2 that are glucose transport deficient and complemented with the L. Mexicana glucose transporter 2. Activity is measured by DNA content using SYBR green in vitro
Format: functional
readout: inhibition (%)
Numbers only, in %.

In the examples that follow, each entry is paired with its recorded inhibition.
# smiles-entry, assay-target, unit-string, reported
measured = [
    ("COc1cc2nc(N3CCN(c4nc(N)c5cc(OC)c(OC)cc5n4)CC3)nc(N)c2cc1OC", "Glucose transporter (Leishmania mexicana)", "%", 4.05),
    ("CCN(CC)CCN(Cc1ccc(-c2ccc(C(F)(F)F)cc2)cc1)C(=O)Cn1c(CCc2cc(F)cc(F)c2F)nc(=O)c2ccccc21", "Glucose transporter (Leishmania mexicana)", "%", -0.7),
    ("C=Cc1cc(NC(=O)N2CCc3cc(OC)c(C(F)(F)F)cc32)cc(-c2cccnc2)c1", "Glucose transporter (Leishmania mexicana)", "%", -1.09),
]

Next, consider the following compound.
inhibition recorded for this compound, Cc1[nH]c(C)c(-c2ccc(Oc3ccc(C(F)(F)F)cc3)cc2)c(=O)c1Br , is 3.05

###

assay-target: Glucose transporter (Leishmania mexicana)
assay-summary: ST_JUDE_LEISH: Cytotoxicity at 2uM final concentration against transgenic Leishmania Mexicana promastigotes LmGT2 that are glucose transport deficient and complemented with the L. Mexicana glucose transporter 2. Activity is measured by DNA content using SYBR green in vitro
Type: functional
readout: inhibition (%)
Give bare numbers, in %.

Consider the following items and state reported inhibition for each.
1. NC1CCN(c2nc(NCCCc3ccc(O)cc3)nc(NCc3ccccc3-c3ccc(C(F)(F)F)cc3)n2)CC1
2. CCCCCN(C(=O)Nc1cc(C(F)(F)F)cc(C(F)(F)F)c1)C(C)c1nc2ccccc2c(=O)n1CC (centres undefined)
3. O=C(NC1CCN(c2ncc(C(F)(F)F)cc2Cl)CC1)c1cccs1
4. Nc1cccc(CNCc2cccc(-c3ccc(-c4nc5ccccc5[nH]4)s3)c2)c1

[3.83, 6.73, -3.08, 5.7]

Parameter requested: inhibition. Apply to each item below.
1. COc1ccc(-c2cnc3ccc(NCc4ccc(S(N)(=O)=O)cc4)nn23)cc1
2. Cc1cccc(-c2cccc3c(NC(=O)N4CCc5cc6nccc(N7CCN8CCC[C@H]8C7)c6cc54)cccc23)n1

[12.6, 1.48]

Hi team, please reply with inhibition for each item in this list.
1. COc1ccc(NC(=O)NC2CCN(c3ccnc4ccccc34)C2)cc1 (centres undefined)
2. CCOc1ccccc1CNc1nccc(NCc2ccccc2OC)n1
3. COc1cc(NC(=O)c2cccc([N+](=O)[O-])c2)cc(S(=O)(=O)c2ccc(Cl)cc2)c1
4. CC(CCCCCC(=O)Nc1ccc(CC(C)NCCc2cccc(Cl)c2)cc1)NCCc1cccc(Cl)c1 (centres undefined)
5. Cc1cc(=O)c(-c2ccc(OCCSc3ccc(C(F)(F)F)cn3)cc2)c(C)[nH]1
6. Clc1ccc(OCc2ccccc2)c(Cc2ccc(-c3nc4cnccc4[nH]3)o2)c1

1: 2.29; 2: 2.05; 3: 0.68; 4: 9.83; 5: 2.2; 6: 0.25

For every record below, what is its inhibition?
1. COc1ccc(Cc2c(Cl)nc3nc(N)nc(N)c3c2C)c(OC)c1OC
2. CCCN(Cc1nnc(-c2cccs2)o1)C(=O)CSc1nnnn1-c1ccc(C)c(C)c1

1: 5.26; 2: 9.19

###

assay-target: Hexose transporter 1 (Plasmodium falciparum) (UniProt O97467)
assay-summary: ST_JUDE_LEISH: Cytotoxicity at 2uM final concentration against transgenic Leishmania Mexicana promastigotes LmPfHT that are glucose transport deficient and complemented with the Plasmodium falciparum hexose transporter. Activity is measured by DNA content using SYBR green in vitro
Type: functional
readout: inhibition (%)
Answers are plain numbers, in %.

Example cases with answers are listed next.
# smiles-entry, unit-string, inhibition
measured = [
    ("Cc1cc(N/N=C/c2cccc([N+](=O)[O-])c2)c2ccccc2n1", "%", 1.27),
    ("CCc1c[nH]c2c(N3CCCCC3=O)cc(C(=O)N[C@@H](Cc3ccccc3)[C@H](O)CNCc3cccc(OC)c3)cc12", "%", -2.31),
    ("c1ccc(-c2ccc3c(Nc4ccc5[nH]ncc5c4)ccnc3c2)nc1", "%", 4.75),
]

As a next step, examine the molecule that follows.
inhibition for CC[C@@H]([C@@H](Cc1cc2ccccc2s1)C(=O)N[C@@H](CCCCNC(=O)OCc1ccccc1)C(=O)Nc1ccccn1)N(O)C=O is 4.31

###

assay-target: Glucose transporter (Leishmania mexicana)
assay-summary: ST_JUDE_LEISH: Cytotoxicity at 2uM final concentration against transgenic Leishmania Mexicana promastigotes LmGT2 that are glucose transport deficient and complemented with the L. Mexicana glucose transporter 2. Activity is measured by DNA content using SYBR green in vitro
Format: functional
readout: inhibition (%)
Give bare numbers, in %.

# molecule, inhibition / %
rows = [
    ("COc1ccc2nc3cc(Cl)ccc3c(Nc3ccc(Oc4ccc(Nc5c6ccc(Cl)cc6nc6ccc(OC)cc56)cc4)cc3)c2c1", 1.3),
    ("CCc1ccc(CN2CCC(NC(=O)c3cc(-c4ccc(N(C)C)cc4)cs3)C2)cc1 (centres undefined)", 6.01),
    ("CC(C)(CNCc1cc(Cl)cc(Cl)c1)c1nc(-c2ccnc(N)n2)c(-c2ccc(Cl)c(O)c2)[nH]1", 2.11),
    ("S=C(NCCc1ccccc1)Nc1ccc2ncsc2c1", -0.73),
    ("Cc1nc(N)nc(N)c1-c1ccc(Br)cc1", 7.53),
    ("O=C(CN1CCCCC1)Nc1ccc(Nc2nccc(NCC(O)c3ccccc3)n2)cc1 (centres undefined)", 7.17),
    ("Cc1cccc2nc(-c3ccc(-c4ccc(NC(=O)C(C)CN(C)C)cc4)s3)[nH]c12 (centres undefined)", 3.65),
    ("O=C(Nc1cccc(-c2ccc(-c3nc4cc(F)ccc4[nH]3)s2)c1)c1ccncc1", 3.32),
]

Could you report inhibition for every entry in the following list?
1. Cc1sc2cc(Cl)cc(Cl)c2c1S(=O)(=O)Nc1ccc2nccc(N3CCNCC3)c2c1
2. O=C(/C=C/c1ccccc1Cl)Nc1ccc(Br)c(OCCN2CCN(CCN3CCCC3)CC2)c1
3. N#Cc1nc2ccc(OCCN(Cc3ccccc3C(F)(F)F)c3ccc(C#N)c(C(F)(F)F)c3)cc2s1
4. Cc1cc(NC(=O)NCCN2CCC(NC(=O)c3cccc(Br)c3)C2)c2ccccc2n1 (centres undefined)
5. c1cc2[nH]c(CCCCc3nc4cc(C5=N[C@H]6CCCC[C@H]6N5)ccc4[nH]3)nc2cc1C1=N[C@H]2CCCC[C@H]2N1
6. CNC(=O)c1cc(NCCCNCc2ccc(Cl)c(C(F)(F)F)c2)nc2ccccc12

1: -0.24; 2: 4.6; 3: 8.4; 4: 2.62; 5: 8.87; 6: -2.48

# per-item lookup of inhibition; items listed below
1. OC(CNCc1ccccc1Oc1ccccc1)c1cccc(C(F)(F)F)c1 (centres undefined)
2. O=C(NCCCCCN1CCC(c2c[nH]c3ccccc23)CC1)Nc1cccc(Br)c1
3. O=C(Nc1ccc(S(=O)(=O)N2CCCCC2)cc1)c1cc(-c2cc(Cl)ccc2O)n[nH]1
4. COc1cc(Cc2cnc(N)nc2N)cc(OC)c1OCCCCC(=O)O

1. 0.07
2. 5.45
3. 4.71
4. 0.75

Provide each entry's inhibition from the list below.
1. FC(F)(F)c1ccc2[nH]c(-c3ccc(-c4ccc(CN5CCN(c6ccncc6)CC5)cc4)cc3)nc2c1
2. Clc1ccc(OCc2ccccc2)c(-c2nc(-c3nc4ncc(Br)cc4[nH]3)cs2)c1
3. O=C([C@H]1CCCCN1c1ccc([N+](=O)[O-])c2ccccc12)N1CCN(c2ncccn2)CC1
4. COc1ccc(-n2ncc(C(=O)N3CCC4(C3)C(=O)N(c3ccccc3)c3ccccc34)c2C)cc1 (centres undefined)
5. COc1ccc2nccc(NC(=O)N3CCC(NCc4cc5c(F)ccc(F)c5[nH]4)CC3)c2n1
6. CNC(=O)c1ccccc1Nc1nc(Nc2ccc(CCN3CCN(C)CC3)cc2)ncc1Cl
7. O=C(Nc1nccs1)c1sc2ccccc2c1O

1: 69; 2: 1.99; 3: 2.64; 4: 0.94; 5: 22.6; 6: 56; 7: 1.45

// each molecule listed below needs its inhibition
1. COc1c(CN2CCOCC2)cccc1-c1cc2c(-c3ccc(C(=O)O)c(C(C)C)c3)ccnc2[nH]1
2. COc1cc2nc(N3CCC(CNC(=O)c4ccc(-c5ccc(C(=O)N(C)C)cc5)c(OCCO)c4)CC3)nc(N)c2cc1OC
3. CCCNC(=O)C1CCN(C(c2ccc(Cl)cc2)c2ccc(Cl)cc2)CC1
4. CCN1CCC(NCc2ccc(-c3ccc(Cl)cc3)cc2)CC1

1. 3.15
2. 2.26
3. 0.49
4. 7.91

###

assay-target: Glucose transporter (Leishmania mexicana)
assay-summary: ST_JUDE_LEISH: Cytotoxicity at 2uM final concentration against transgenic Leishmania Mexicana promastigotes LmGT2 that are glucose transport deficient and complemented with the L. Mexicana glucose transporter 2. Activity is measured by DNA content using SYBR green in vitro
Type: functional
readout: inhibition (%)
Answers are plain numbers, in %.

# compound, assay-target, reported
measured = [
    ("Cc1ccc2nc(C)cc(N/N=C/c3ccc([N+](=O)[O-])o3)c2c1", "Glucose transporter (Leishmania mexicana)", 9.98),
    ("CN1CCCN(c2ccnc3cc4c(cc23)N(C(=O)c2ccc(C(F)(F)F)cc2)CC4)CC1", "Glucose transporter (Leishmania mexicana)", 7.79),
    ("COc1cc(CNCCCCCCNCc2cc(OC)cc3ccccc23)c2ccccc2c1", "Glucose transporter (Leishmania mexicana)", 10.4),
    ("Clc1ccc2c(NN=Cc3ccccc3)ccnc2c1", "Glucose transporter (Leishmania mexicana)", 7.07),
    ("Cc1nc2ccccc2c(O)c1-c1ccc(Cl)cc1", "Glucose transporter (Leishmania mexicana)", -1.04),
]

State the recorded inhibition for every item in the following list.
1. O=C(NCC(CCN1CCC(c2c[nH]c3ccccc23)CC1)c1ccccc1)Nc1ccc(Cl)c(Cl)c1 (stereo not given)
2. COc1ccc2[nH]c(C)cc(=NN=Cc3ccccc3Cl)c2c1
3. O=C(/C=C/c1ccc(Cl)c(Cl)c1)NCCCCCN1CCC(NC(=O)Nc2cccc(Cl)c2)CC1

[2.16, 1.92, 3.33]

Can you give me inhibition for all of these, one by one?
1. O=C(c1cc(C(=O)Nc2ccccc2F)c(=O)n(-c2ccccc2F)c1)c1cc(Cl)ccc1O
2. CC(C)c1ccc2oc(-c3ccc(NC(=O)c4ccc([N+](=O)[O-])o4)cc3)nc2c1

1: -2.18; 2: 4.26
